Biological target: human mAChR M1 (Homo sapiens)
Construct: host or cells: CHO-K1
Sequence (P11229 1-460): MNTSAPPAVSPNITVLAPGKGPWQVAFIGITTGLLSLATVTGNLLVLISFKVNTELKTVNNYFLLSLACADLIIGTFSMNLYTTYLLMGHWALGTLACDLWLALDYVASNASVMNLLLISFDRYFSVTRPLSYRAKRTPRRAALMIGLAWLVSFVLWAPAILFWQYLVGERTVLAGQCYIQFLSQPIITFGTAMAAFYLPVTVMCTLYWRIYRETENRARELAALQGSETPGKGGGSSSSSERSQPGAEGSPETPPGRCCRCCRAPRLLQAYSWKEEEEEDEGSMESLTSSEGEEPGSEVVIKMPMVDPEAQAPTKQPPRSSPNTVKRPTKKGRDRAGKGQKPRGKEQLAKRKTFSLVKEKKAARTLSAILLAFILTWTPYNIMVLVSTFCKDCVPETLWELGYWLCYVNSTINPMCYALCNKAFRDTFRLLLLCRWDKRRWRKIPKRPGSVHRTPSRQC
Test: mAChR M1 cell-based functional assay (calcium mobilization, Fluo-4, FDSS)
Details: CHO-K1 cells stably expressing hM1; EC20 acetylcholine response; read-out: Human M1 Emax
MEASUREMENT TYPE: Emax (%)

[A] Cn1ccc2c(Cc3ccc(-c4cscn4)cc3)cc(C(=O)NCC3CCOCC3)nc21 [Compound 26]
[B] Cn1ccc(-c2ccc(Cc3cc(C(=O)N[C@H]4CCCC[C@@H]4O)nc4c3ccn4C)cc2)n1 [Compound 38]
Higher Emax: A or B ? When you have decided, please share the label of that item. B

[A] CC1CC(NC(=O)c2cc(Cc3ccc(-c4ccn(C)n4)cc3)c3ccsc3n2)CC(C)O1 (stereo not shown) [Compound 91]
[B] Cn1ccc2c(Cc3ccc(-c4nccs4)cc3)cc(C(=O)NCC3CCOCC3)nc21 [Compound 68]
Higher Emax: A or B ? When you have decided, please share the label of that item. A

Recorded values, source patent US10899759B2.
